From: the RNAGym collection of RNA variant scans (doi:10.7554/elife.90254)

B1: OR4K15 (parent)
chain: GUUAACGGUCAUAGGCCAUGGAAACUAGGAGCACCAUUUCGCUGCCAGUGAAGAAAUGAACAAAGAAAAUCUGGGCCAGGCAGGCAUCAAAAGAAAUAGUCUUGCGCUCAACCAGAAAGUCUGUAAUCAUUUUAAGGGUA

# Variants of: B1
# method: self-cleavage, relative activity (ratio to wild type); higher = more cleavage; in vitro, sequencing; the parent is a self-cleaving ribozyme
test-readout: self-cleavage
Please give the numeric answer without any surrounding text.

Check the records and state self-cleavage for C113U
0.08

Check the records and state self-cleavage for A69G A89G
0.86

Check the records and state self-cleavage for U57C A68G
0.95
